# Tested on: SK-MEL-5 melanoma
# Test name: NCI tumour cell line growth inhibition, 48 h
Reported property: TGI (µM)
State just the number; it will be interpreted in µM.

COC(=O)c1ccc(CCC2=CC(=O)C=CC2=O)cc1    30.2

The reported TGI of the compound O=C1C(Cl)=CC2(C=C1Cl)CCN=c1c(O)c3c(c(O)c12)=NC=N3 was 30.8

The reported TGI of the compound O=c1c(-c2ccccc2)c(SCCCN2CCCCC2)n(-c2ccccc2)c(=S)n1-c1ccccc1 was 30.8

----------
# Test system: SR leukemia
# Test name: NCI tumour cell line growth inhibition, 48 h
Reported TGI is given for each of the following compounds.

# example entries with known answers
Cc1ccc(-c2nc([P+](c3ccccc3)(c3ccccc3)c3ccccc3)c(N3CCOCC3)o2)cc1    5.33 µM
COc1cc2c(cc1C)NC(=O)/C2=C\c1ccc(Oc2ccccc2)cc1    2.1 µM
CCCCCC(=O)OC[n+]1cccc(-c2c(COC(=O)NC(C)C)c(COC(=O)NC(C)C)c3n2CCC3)c1    > 73.8 µM
CCCN1C(=O)CN(S(=O)(=O)c2ccc(Cl)cc2)C1=O    > 100 µM
O=C(/C=C/c1ccccc1)CCN1CCCCC1    > 100 µM

Reading of TGI for Cc1ccccc1NC(=O)C1C(=O)N(c2ccccc2C)C(=O)/C1=N\NC(N)=O (centres undefined) with SR leukemia: > 100 µM
